Reference for the values: PubChem BioAssay (NCATS)

Assay: BET inhibitor-based combinations targeting novel dependencies in MECOM-rearranged (r) AML: UCSD-AML1 cell line (AID 2202235); also: nearly all actives have a fitted effect of over 40% in size
Conditions: UCSD-AML1 AML cells viability, CellTiter-Glo, 48 h; series mostly up to 46 µM
Inconclusive results are not listed. Calls of active or inactive are those of the source. Calls follow the shape of the dose curve; as a rule, active = well fitted inhibition curve with a large enough effect; inconclusive = small, poorly fitted or top-dose-only effect; inactive = no such curve, though single readings can be large or run the other way.
API: response.call in active, inactive

                                   compound  classname
0                  Nc1nc(=S)c2[nH]cnc2[nH]1     active
1  O=C(NO)c1cnc(N2C[C@H]3C[C@@H]2CN3c2cc(C(F)(F)F)ccn2)nc1     active
2         CC(C)(C)C(=O)N1N=CC[C@H]1c1ccccc1   inactive
3  N=C(N)c1ccc2nc(-c3cc(CC(=O)N[C@@H](CC(=O)O)C(=O)O)cc(-c4cc(S(N)(=O)=O)ccc4O)c3O)[nH]c2c1   inactive

Answer briefly: the call reported for `CCOC(=O)[C@@]1(CCCCCCOc2ccc(Cl)cc2)CO1` in this assay.
inactive

Hey, what did the test say about N#CC(c1ccnc(NCCc2cccnc2)n1)c1nc2ccccc2s1 (stereo unspecified) ?
active

====

Assay: BET inhibitor-based combinations targeting novel dependencies in MECOM-rearranged (r) AML: HNT-34 cell line (AID 2202234); also: nearly all actives have a fitted effect of over 35% in size
Conditions: HNT-34 AML viability, CellTiter-Glo luminescence, 48 h; series mostly up to 46 µM
Results filed as inconclusive are left out. Calls of active or inactive are those of the source. Calls follow the shape of the dose curve; as a rule, active = well fitted inhibition curve with a large enough effect; inconclusive = small, poorly fitted or top-dose-only effect; inactive = no such curve, though single readings can be large or run the other way.
Log the outcome using a class from active, inactive

compound	className
C[C@@H]1COCCN1c1cc(-c2ccnn2C)c2ccnc(-c3ccn[nH]3)c2n1	active
CC(C)(O)CC[C@@H](O)[C@](C)(O)[C@H]1CC[C@@]2(O)C3=CC(=O)[C@@H]4C[C@@H](O)[C@@H](O)C[C@]4(C)[C@H]3CC[C@]12C	inactive
CC(=O)N1CCC(Nc2cc(C(=O)NC[C@H](O)CN3CCc4ccccc4C3)ncn2)CC1	inactive

Fill in: this test's call for `CC(C)c1c(-c2ccccc2)nc2c(C#N)c[nH]n2c1=O` is ___
inactive

Entry `Nc1nccc2c1ncn2[C@@H]1C=C(CO)[C@@H](O)[C@H]1O` : call = ?
active

Kindly provide the recorded test outcome for the following compound: `CN[C@@H]1C[C@H]2O[C@@](C)([C@@H]1OC)n1c3ccccc3c3c4c(c5c6ccccc6n2c5c31)C(=O)N[C@H]4O`
active

Just curious, what result did `O=C(CCCCCCNC(=O)c1cnc(N(c2ccccc2)c2ccccc2Cl)nc1)NO` get here?
active

Name the outcome recorded for `CCC(=O)NCC[C@@H]1CCc2ccc3c(c21)CCO3` in the assay.
inactive

Fill in: this test's call for `C[C@]12CC[C@H](O)CC1=CC[C@@H]1[C@@H]2CC[C@]2(C)C(c3cccnc3)=CC[C@@H]12` is ___
inactive

====

Experiment: BET inhibitor-based combinations targeting novel dependencies in MECOM-rearranged (r) AML: AML-191 cell line (AID 2202236; also: nearly all actives have a fitted effect of over 35% in size)
Conditions: AML-191 viability, CellTiter-Glo luminescence, 48 h; series mostly up to 46 µM
Results filed as inconclusive are left out. Activity calls are given as the source filed them. Calls follow the shape of the dose curve; as a rule, active = well fitted inhibition curve with a large enough effect; inconclusive = small, poorly fitted or top-dose-only effect; inactive = flat fitted curve, though single readings scatter.
Answer with one of the outcomes given here: class 1 (active), class 0 (inactive)

>>> df
                                   compound  classname
0  O=C(Nc1cccc(C(F)(F)F)c1)c1cccc2cc(Oc3cc(CO)ncn3)ccc12    class 0

Returns: the outcome recorded for `CCOC(=O)[C@@H](N)Cc1ccc(-c2cc(O[C@H](c3ccc(Cl)cc3-n3ccc(C)n3)C(F)(F)F)nc(N)n2)cc1` in this assay.
class 1

What outcome does the record of this test show for O=C(O)CC(C(=O)O)n1c(O)c(C2=c3cc(Br)ccc3=NC2=O)sc1=S (stereo not drawn) ?
class 0

====

Assay: qHTS for Inhibitors of the Aldehyde Dehydrogenase Family (ALDH1A2, ALDH1A3, ALDH2, ALDH3A1) (AID 2061307); also: nearly all actives have a fitted effect of over 50% in size
Settings: ALDH inhibition qHTS; series mostly up to 50.3 µM
Records with an inconclusive call do not appear. The source made the active and inactive calls. Calls follow the shape of the dose curve; as a rule, active = well fitted inhibition curve with a large enough effect; inconclusive = small, poorly fitted or top-dose-only effect; inactive = no such curve, though single readings can be large or run the other way.
Pick from true (1) (active), false (0) (inactive) when you respond.

Check out these entries, answers already filled in.
>>> print(df.to_string())
                                   molecule  classname
0        O=C(Nc1nncs1)c1ccn(-c2ccc(F)cc2)n1  false (0)
1  O=C(CNc1cccc(S(=O)(=O)N2CCOCC2)c1)Nc1ccc(OC(F)(F)F)cc1   true (1)
2  O=C1Cc2cc(S(=O)(=O)N3CCN(c4ccc([N+](=O)[O-])cc4)CC3)ccc2N1  false (0)
3       c1ccc(-n2cc(-c3nnc4n3CCCCC4)cn2)cc1  false (0)
4      Cc1ccc(CNc2ccc(N3CCN(C)CC3=O)cc2)cc1  false (0)

Hello, I am checking results. What call was entered for `Cc1nc(SCCc2nc3ccccc3[nH]2)c2oc3ccccc3c2n1` ?
false (0)

Any idea what this test logged for `COCCCNC(=O)c1cc2cc(S(=O)(=O)N(C)C)ccc2n1C` ?
false (0)

Given `Brc1ccc(CN2CCC(N(CCc3ccccc3)Cc3ccccc3)CC2)cc1` , state the outcome it received in this test.
false (0)

Dear colleague, could you share the recorded outcome for `O=C(Nc1ncccc1O)c1ccc(S(=O)(=O)Nc2ccccc2)cc1` when you have a moment?
false (0)

Record request — test call for `Cc1c(P(=S)(c2ccccc2)c2ccccc2)[n+]2ccccc2n1C/C=C/c1cccc(Br)c1`
true (1)

State the result this test recorded for `Ic1ccc(CN2CCC(N(CCc3ccccc3)Cc3ccccc3)CC2)cc1` .
false (0)

Dear all, I need the recorded test outcome for `CCOc1ccc(CNc2ccc3ccccc3c2)cc1` , thank you.
true (1)

Query: recorded result category for `COc1ccc(N2CCN(C(=O)c3cnc(N4CCCCC4)c4ccccc34)CC2)cc1` in this test
false (0)

====

Test: BET inhibitor-based combinations targeting novel dependencies in MECOM-rearranged (r) AML: UCSD-AML1 cell line (AID 2202235); also: nearly all actives have a fitted effect of over 40% in size
Conditions: UCSD-AML1 AML cells viability, CellTiter-Glo, 48 h; series mostly up to 46 µM
Inconclusive results are not listed. Activity calls are given as the source filed them. Calls come from the whole dose curve; as a rule, active = well fitted inhibition curve with a large enough effect; inconclusive = small, poorly fitted or top-dose-only effect; inactive = no such curve, though single readings can be large or run the other way.
Tick one outcome: active, inactive

Solved entries (count: 3):
>>> df
                                   compound  classname
0  CC(c1cc2ccccc2s1)N(O)C(N)=O (stereo not given)   inactive
1  NC(=O)c1cnc2[nH]ccc2c1NC1C2CC3C[C@H]1CC(O)(C3)C2 (stereo not given in full)     active
2  COC(=O)N(CC(=O)O)Cc1cccc(OCc2nc(-c3ccc(Cl)cc3)oc2C)c1   inactive

Assay outcome for `CC(=O)N[C@H]1CSSC[C@@H](C(N)=O)NC(=O)[C@H](C(C)C)NC(=O)[C@H](C)NC(=O)[C@H](Cc2cnc[nH]2)NC1=O` : what was it?
inactive

Which outcome was assigned to `COc1ccc2c(c1)CC[C@@H]1[C@@H]2CC[C@]2(C)[C@@H](NCCCCCCN3C(=O)C=CC3=O)CC[C@@H]12` in this test?
inactive

====

Assay: BET inhibitor-based combinations targeting novel dependencies in MECOM-rearranged (r) AML: OCI-AML3 cell line (AID 2202232); also: nearly all actives have a fitted effect of over 35% in size
Conditions: CellTiter-Glo luminescence, 48 h; OCI-AML3 viability; series mostly up to 46 µM
Method: Ecotropic viral insertion site 1 (EVI1) is located on chromosome 3q26.2 as part of the MECOM (MDS and EVI1 complex) locus. […] A collection of 2480 mechanistically annotated dugs (MIPE v5.0) was used to screen four 3q26.2 rearranged AML cell lines and three non-3q26.2 rearranged AML cell lines. […] Cell viability was determined by luminescence based, Cell Titer Glo assay (Promega). […] Luminescence readings were taken using a Viewlux (PerkinElmer) with a 2 s exposure time per plate. […]
Inconclusive results are not listed. The source made the active and inactive calls. Calls follow the shape of the dose curve; as a rule, active = well fitted inhibition curve with a large enough effect; inconclusive = small, poorly fitted or top-dose-only effect; inactive = no such curve, though single readings can be large or run the other way.
Hello, when you answer, please use one of the following outcomes: true (active), false (inactive)

                                   compound  classname
0  NS(=O)(=O)c1ccc(S(=O)(=O)Nc2cccc3c(Cl)c[nH]c23)cc1       true
1  Cc1[nH]c2ccccc2c1CCNCc1ccc(/C=C/C(=O)NO)cc1       true
2  CCn1cc(-c2ccnc3[nH]c(-c4cccc(CN(C)C)c4)cc23)c(-c2ccc(NC(=O)N(C)C)cc2)n1       true
3     c1ccc(-c2cc(CCC3CCNCC3)c3ccccc3n2)cc1       true
4  CN(C)CCNC(=O)NC[C@H]1CC[C@@H]2[C@H](O1)c1cc(C(F)(F)F)ccc1N[C@H]2c1ccccc1       true
5  N#CC(c1ccnc(NCCc2cccnc2)n1)c1nc2ccccc2s1 (stereo not drawn)       true
6   N=C(N)c1ccc(OCCCCCOc2ccc(C(=N)N)cc2)cc1       true
7  CC1(C)OCCn2c1nc1c(N3CCOCC3)nc(-c3cnc(N)nc3)nc12       true
8  Cn1ncc(Cl)c1-c1cc(C(=O)N[C@H](CN)Cc2ccc(F)c(F)c2)sc1Cl       true
9   O=C(NO)c1ccc(C2=Nc3ccccc3Oc3ccccc32)cc1       true

How was `COc1cc(=C2C=c3ccccc3=N2)[nH]/c1=C/c1[nH]c(C)cc1C` classified in this test?
true

Could you please tell me the result logged for `CCOc1ccc(-n2c([C@@H](C)N(Cc3cccnc3)C(=O)Cc3ccc(F)c(C(F)(F)F)c3)nc3ncccc3c2=O)cc1` in this assay?
false

Recorded test call requested for `C=CC(=O)Nc1cccc(Oc2nc(Nc3ccc(N4CCN(C)CC4)cc3)nc3ccsc23)c1`
true
